Property: self-splicing fitness (ln); scope: individual sequences
Protocol summary: self-splicing fitness, log relative to wild type (ln ratio); higher = more splicing; Tetrahymena group I intron in knt gene, E. coli kanamycin selection, DiMSum; sequences stand for … in CUCUCU…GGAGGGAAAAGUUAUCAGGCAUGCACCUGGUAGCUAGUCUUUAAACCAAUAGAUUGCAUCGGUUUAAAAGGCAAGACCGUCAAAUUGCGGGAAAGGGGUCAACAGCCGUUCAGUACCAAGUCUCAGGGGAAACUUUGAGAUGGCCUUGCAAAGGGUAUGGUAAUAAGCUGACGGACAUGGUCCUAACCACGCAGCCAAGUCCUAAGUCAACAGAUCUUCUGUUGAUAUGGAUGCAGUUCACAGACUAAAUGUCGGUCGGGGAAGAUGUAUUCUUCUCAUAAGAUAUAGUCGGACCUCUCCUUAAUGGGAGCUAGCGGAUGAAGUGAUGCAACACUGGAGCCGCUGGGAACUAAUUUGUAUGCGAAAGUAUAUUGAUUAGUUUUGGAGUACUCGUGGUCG;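 also: selection with 25 µg/mL kanamycin versus none on LB agar overnight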
Test settings: 37 °C
Answer as a number with no unit attached.

Here's what some known entries look like.
# Biosequence, self-splicing fitness (ln)
data = [
    ("GGAUAGCAAUAUUACGAGUA", -1.14),
    ("AUUGAGCAAUAUUACGCGUA", -1.87),
]

Turning now to a further sequence:
Lab note: UUCAAGCAAUAUUACGCUGA gave self-splicing fitness (ln) of -2.33

====

Protocol summary: self-splicing fitness, log relative to wild type (ln ratio); higher = more splicing; Tetrahymena group I intron in knt gene, E. coli kanamycin selection, DiMSum; sequences stand for … in CUCUCU…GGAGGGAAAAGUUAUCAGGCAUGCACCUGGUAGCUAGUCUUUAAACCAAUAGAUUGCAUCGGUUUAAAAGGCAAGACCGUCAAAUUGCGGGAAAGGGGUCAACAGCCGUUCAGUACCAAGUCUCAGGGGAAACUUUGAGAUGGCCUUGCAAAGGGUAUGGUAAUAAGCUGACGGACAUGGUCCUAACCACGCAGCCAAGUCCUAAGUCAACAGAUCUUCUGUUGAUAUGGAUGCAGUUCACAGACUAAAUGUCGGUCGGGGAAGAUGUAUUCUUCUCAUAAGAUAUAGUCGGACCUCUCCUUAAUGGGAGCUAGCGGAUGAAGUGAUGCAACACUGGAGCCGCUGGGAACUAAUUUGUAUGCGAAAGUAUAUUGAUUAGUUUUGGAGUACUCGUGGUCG
Test settings: 37 °C
Readout: self-splicing fitness (ln)
Answer as a number with no unit attached.

# Biosequence, Readout, Result value
data = [
    ("UGACAGCAAUAUUACGCUCU", "self-splicing fitness (ln)", -0.389),
    ("CAUAAGCAAUAUUACGCUCA", "self-splicing fitness (ln)", -1.18),
]

Lab note: AGGUAGCAAUAUUACGUGCU gave self-splicing fitness (ln) of -0.391

Lab note: GCUUAGCAAUAUUACGAGUU gave self-splicing fitness (ln) of -0.362

Lab note: GUCGAGCAAUAUUACGCGUC gave self-splicing fitness (ln) of -2.49

Lab note: UCUAAGCAAUAUUACGCAAG gave self-splicing fitness (ln) of -1.86

Lab note: GGUAAGCAAUAUUACGGAGA gave self-splicing fitness (ln) of -2.8

Lab note: UCGCAGCAAUAUUACGUGUG gave self-splicing fitness (ln) of -2.33

Lab note: UGCCAGCAAUAUUACGCUGG gave self-splicing fitness (ln) of -2.63

Lab note: CCGGAGCAAUAUUACGCGUG gave self-splicing fitness (ln) of -0.996

Lab note: AUAGAGCAAUAUUACGCCAU gave self-splicing fitness (ln) of -1.66

Lab note: GCGCAGCAAUAUUACGAUGC gave self-splicing fitness (ln) of -0.824

====

Protocol summary: self-splicing fitness, log relative to wild type (ln ratio); higher = more splicing; Tetrahymena group I intron in knt gene, E. coli kanamycin selection, DiMSum; sequences stand for … in CUCUCU…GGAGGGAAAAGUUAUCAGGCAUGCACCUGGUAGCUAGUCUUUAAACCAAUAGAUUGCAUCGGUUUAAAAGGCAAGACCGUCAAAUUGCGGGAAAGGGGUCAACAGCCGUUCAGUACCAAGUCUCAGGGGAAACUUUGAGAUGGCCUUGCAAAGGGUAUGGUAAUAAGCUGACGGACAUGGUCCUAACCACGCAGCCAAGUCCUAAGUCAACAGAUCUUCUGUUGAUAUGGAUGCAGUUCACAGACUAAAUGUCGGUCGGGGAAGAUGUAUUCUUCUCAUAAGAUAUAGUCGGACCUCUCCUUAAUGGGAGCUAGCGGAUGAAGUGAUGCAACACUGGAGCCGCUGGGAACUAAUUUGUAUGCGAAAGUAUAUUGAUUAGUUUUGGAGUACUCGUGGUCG
Test settings: 30 °C
Threshold check on self-splicing fitness (ln): at or above -3 gives true, strictly below gives false.

// below: answered sequences
# Biosequence, Class label
data = [
    ("UCCCAGCAAUAUUACGGCUU", "true"),
    ("GUGAAGCAAUAUUACGCAAG", "true"),
    ("UUAGAGCAAUAUUACGACUU", "true"),
    ("UUAAAGCAAUAUUACGCUCG", "true"),
    ("CUUUAGCAAUAUUACGAUUC", "false"),
]

Here is another sequence to look at.
Exam item: Could you please find out whether CUCAAGCAAUAUUACGUCGC has self-splicing fitness (ln) that meets -3 or exceeds it?
Marked response: false

====

Protocol summary: self-splicing fitness, log relative to wild type (ln ratio); higher = more splicing; Tetrahymena group I intron in knt gene, E. coli kanamycin selection, DiMSum; sequences stand for … in CUCUCU…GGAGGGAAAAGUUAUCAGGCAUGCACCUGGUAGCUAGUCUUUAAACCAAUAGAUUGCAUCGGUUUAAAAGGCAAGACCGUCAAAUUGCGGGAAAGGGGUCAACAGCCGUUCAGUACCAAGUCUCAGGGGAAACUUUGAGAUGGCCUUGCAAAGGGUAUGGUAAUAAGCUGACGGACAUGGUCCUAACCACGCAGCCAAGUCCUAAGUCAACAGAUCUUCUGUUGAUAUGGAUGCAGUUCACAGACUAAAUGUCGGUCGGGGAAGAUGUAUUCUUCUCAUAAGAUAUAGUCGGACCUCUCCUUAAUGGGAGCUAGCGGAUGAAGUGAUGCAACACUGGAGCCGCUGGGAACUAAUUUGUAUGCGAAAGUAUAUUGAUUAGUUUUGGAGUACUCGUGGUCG
Test settings: 30 °C
Readout: self-splicing fitness (ln)
Answer as a number with no unit attached.

Here's what some known entries look like.
# Biosequence, self-splicing fitness (ln)
records = [
    ("CCUUAGCAAUAUUACGAGUG", -1.07),
    ("UAAGAGCAAUAUUACGAUUU", -2.44),
    ("UUAAAGCAAUAUUACGGGUA", -0.431),
    ("GGUCAGCAAUAUUACGAAAC", -0.257),
    ("CACUAGCAAUAUUACGGCUC", -2.9),
    ("CGAGAGCAAUAUUACGAAGC", -3.7),
]

Lab note: ACCUAGCAAUAUUACGUAGG gave self-splicing fitness (ln) of -3.59

Lab note: AUAGAGCAAUAUUACGCCAU gave self-splicing fitness (ln) of -2.25

====

Protocol summary: self-splicing fitness, log relative to wild type (ln ratio); higher = more splicing; Tetrahymena group I intron in knt gene, E. coli kanamycin selection, DiMSum; sequences stand for … in CUCUCU…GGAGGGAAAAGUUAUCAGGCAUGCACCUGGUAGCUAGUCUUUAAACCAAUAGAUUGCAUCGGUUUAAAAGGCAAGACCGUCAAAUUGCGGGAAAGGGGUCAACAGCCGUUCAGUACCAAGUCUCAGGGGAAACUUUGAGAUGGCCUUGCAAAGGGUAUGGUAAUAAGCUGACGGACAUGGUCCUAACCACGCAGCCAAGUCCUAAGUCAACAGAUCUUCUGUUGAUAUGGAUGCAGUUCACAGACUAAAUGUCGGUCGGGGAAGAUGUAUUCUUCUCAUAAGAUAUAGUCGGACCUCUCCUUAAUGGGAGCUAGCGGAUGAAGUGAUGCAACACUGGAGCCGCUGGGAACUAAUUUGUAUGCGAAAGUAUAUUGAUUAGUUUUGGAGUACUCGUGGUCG
Test settings: 30 °C
Property: self-splicing fitness (ln); scope: individual sequences

Lab note: ACUCAGCAAUAUUACGGACG gave self-splicing fitness (ln) of -0.251

Lab note: GCAGAGCAAUAUUACGCUUC gave self-splicing fitness (ln) of -3.9

Lab note: UUUGAGCAAUAUUACGUCUU gave self-splicing fitness (ln) of -3.77

Lab note: UAUCAGCAAUAUUACGCUUG gave self-splicing fitness (ln) of -0.489

Lab note: GCCCAGCAAUAUUACGCGCG gave self-splicing fitness (ln) of -2.16

Lab note: GCGUAGCAAUAUUACGACAU gave self-splicing fitness (ln) of -0.276

Lab note: GCGUAGCAAUAUUACGGGUG gave self-splicing fitness (ln) of -1.55

Lab note: ACGUAGCAAUAUUACGCCUC gave self-splicing fitness (ln) of -2.48
